- Species: Rattus norvegicus
- measurement_description: DrugMatrix - Regimen: Daily Repeat
- Format: toxicity, organism-based, Sprague-Dawley
- Set-up: regimen Daily Repeat, gender Male, age 6-8 weeks
- measurement_parameters: in vivo, po, 0 mg/kg, 72 h, tissue Blood, route oral GAVAGE, dose level Control, time 3 day, vehicle 100 % WATER
PLATELET COUNT reference
Param answer (str): number followed by unit.

Worked examples follow.
molecule: CC(C)(C)c1ccc(C(=O)CCCN2CCC(OC(c3ccccc3)c3ccccc3)CC2)cc1 [EBASTINE]
PLATELET COUNT: 1142.83 x10E3/uL
--
molecule: C[C@@H]1C[C@@H]([C@H](O)CC2CC(=O)NC(=O)C2)C(=O)[C@@H](C)C1 [CYCLOHEXIMIDE]
PLATELET COUNT: 1125.33 x10E3/uL

Asked: Name the reported PLATELET COUNT value associated with the molecule Nc1ccn([C@@H]2CS[C@H](CO)O2)c(=O)n1 [LAMIVUDINE]
Given back: 1022.83 x10E3/uL

----------
- Organism: Rattus norvegicus
- measurement_description: DrugMatrix - Regimen: Daily Repeat
- Type: toxicity, organism-based, Sprague-Dawley
- Parameters: regimen Daily Repeat, gender Male, age 6-8 weeks
- measurement_parameters: in vivo, po, 0 mg/kg, 72 h, tissue Plasma, route oral GAVAGE, dose level Control, time 3 day, vehicle .5 % CMC
measured_quantity: LIPASE
Param answer (str): number followed by unit.

compound: C[C@](O)(CS(=O)(=O)c1ccc(F)cc1)C(=O)Nc1ccc(C#N)c(C(F)(F)F)c1 [(R)-BICALUTAMIDE]
LIPASE: 10.33 u/L
--
compound: CN1C(=O)COc2c(C(=O)NC3CN4CCC3CC4)cc(Cl)cc21 (stereo not drawn)
LIPASE: 9.33 u/L

Then this compound:
Asked: Name the reported LIPASE value associated with the compound O=[N+]([O-])c1ccccc1
Given back: 11.83 u/L
